# assay-details: Bioavailability of CTO given orally as solid in capsule or as liquid in PEG-400; CAI in plasma by HPLC/MS
# Format: in vivo, dogs
# run-conditions: plasma; oral gavage in PEG400, single dose 685 mg/kg, male dog; measured as CAI; read-out: Plasma concentration after 1 hr
observation-type: concentration at 1 h (ng/mL)
Note: unit ng/mL is implicit; provide only the numeric part.

Q: Reported concentration at 1 h, compound NC(=O)c1nnn(Cc2cc(Cl)c(C(=O)c3ccc(Cl)cc3)c(Cl)c2)c1N : ____
A: 511

* * *

# assay-details: Bioavailability of CTO given orally as solid in capsule or as liquid in PEG-400; CAI in plasma by HPLC/MS
# Assay type: in vivo, dogs
# run-conditions: plasma; oral gavage in PEG400, single dose 685 mg/kg, female dog; measured as CAI; read-out: Plasma concentration after 1 hr
observation-type: concentration at 1 h (ng/mL)
Note: unit ng/mL is implicit; provide only the numeric part.

Q: Reported concentration at 1 h, molecule NC(=O)c1nnn(Cc2cc(Cl)c(C(=O)c3ccc(Cl)cc3)c(Cl)c2)c1N : ____
A: 570
